# credit: ChEMBL document CHEMBL2057142

# protocol_notes: Oral bioavailability in rat at 10 mg/kg
# Format: ADME, organism-based
# experimental_context: in vivo
property: bioavailability (%)
Answers are plain numbers, in %.

CCn1c(CNc2ccccc2)nnc1SCc1nc2cc(C(F)(F)F)ccc2o1: 9.2

Now for a further compound.
GET /value?item= CCn1c(CNc2ccccc2)nnc1SCc1nc2cc(OC(F)(F)F)ccc2o1 &field=bioavailability returns 5.4

* * *

# assayed_system: Long-chain fatty acid transport protein 1 (Mus musculus, UniProt Q60714)
# Sequence (Q60714 whole entry): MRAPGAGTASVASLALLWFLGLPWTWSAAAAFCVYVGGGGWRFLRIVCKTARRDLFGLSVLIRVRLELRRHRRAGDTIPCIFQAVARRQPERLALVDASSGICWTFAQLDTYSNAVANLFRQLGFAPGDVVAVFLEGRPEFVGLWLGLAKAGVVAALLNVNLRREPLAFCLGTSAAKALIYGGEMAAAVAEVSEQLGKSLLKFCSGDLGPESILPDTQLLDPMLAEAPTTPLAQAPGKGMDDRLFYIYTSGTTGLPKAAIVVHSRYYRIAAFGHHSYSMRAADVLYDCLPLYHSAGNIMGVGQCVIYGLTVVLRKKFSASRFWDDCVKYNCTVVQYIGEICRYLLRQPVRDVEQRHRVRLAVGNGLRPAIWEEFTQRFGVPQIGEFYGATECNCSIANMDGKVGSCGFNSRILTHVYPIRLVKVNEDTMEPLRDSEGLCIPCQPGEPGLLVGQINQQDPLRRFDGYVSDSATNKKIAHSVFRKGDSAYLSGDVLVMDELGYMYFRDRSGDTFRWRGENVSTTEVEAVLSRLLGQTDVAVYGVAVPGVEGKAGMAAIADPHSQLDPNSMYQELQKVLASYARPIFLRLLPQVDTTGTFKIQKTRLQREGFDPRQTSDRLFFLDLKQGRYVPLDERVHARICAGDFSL
# protocol_notes: Inhibition of mouse recombinant FATP1 acyl-coA synthetase activity using [14C]oleic acid as substrate
For each entry below, report its IC50 value.
Answers are plain numbers, in nM.

Examples with answers:
CCC(=O)c1ccc(N(C)C(=O)CSc2nnc(CNc3ccccc3)n2CC)cc1: 2000
CCOC(=O)c1cccc(NC(=O)CSc2nnc(CNc3ccccc3)n2CC)c1: 2900
CCOC(=O)c1ccc(NC(=O)CSc2nnc(CNc3ccccc3)n2CC)cc1: 1100

The compound CCn1c(CNc2ccccc2)nnc1SCc1nc2cc(C(F)(F)F)ccc2o1 , tested on Long-chain fatty acid transport protein 1 (Mus musculus, UniProt Q60714), showed IC50 of 360

* * *

# assayed_system: Long-chain fatty acid transport protein 1 (Homo sapiens)
# Sequence (Q6PCB7 whole entry): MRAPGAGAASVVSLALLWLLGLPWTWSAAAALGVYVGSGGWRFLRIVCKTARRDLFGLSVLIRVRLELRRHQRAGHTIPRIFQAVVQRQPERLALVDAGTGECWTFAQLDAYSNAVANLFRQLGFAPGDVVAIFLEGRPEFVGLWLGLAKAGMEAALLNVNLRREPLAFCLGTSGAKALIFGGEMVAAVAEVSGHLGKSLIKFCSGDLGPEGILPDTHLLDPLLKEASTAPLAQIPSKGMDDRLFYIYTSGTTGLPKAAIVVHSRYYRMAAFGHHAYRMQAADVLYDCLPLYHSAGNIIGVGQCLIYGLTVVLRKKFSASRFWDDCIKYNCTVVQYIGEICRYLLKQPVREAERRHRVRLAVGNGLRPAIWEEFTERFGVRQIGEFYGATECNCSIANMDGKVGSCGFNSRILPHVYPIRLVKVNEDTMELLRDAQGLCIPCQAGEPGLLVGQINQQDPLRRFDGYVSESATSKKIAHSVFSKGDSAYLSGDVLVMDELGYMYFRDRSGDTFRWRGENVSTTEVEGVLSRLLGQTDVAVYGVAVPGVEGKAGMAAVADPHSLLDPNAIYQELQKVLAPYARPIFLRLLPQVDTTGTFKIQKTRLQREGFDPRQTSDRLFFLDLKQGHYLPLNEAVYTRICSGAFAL
# protocol_notes: Inhibition of human recombinant FATP1 acyl-coA synthetase activity using [14C]oleic acid as substrate
Would you mind telling me the reported IC50 of each entry?

Observe how each entry below is paired with its result.
CCn1c(CNc2ccccc2)nnc1SCc1nc2cc(Cl)ccc2o1: > 1000 nM
CCn1c(CNc2ccccc2)nnc1SCC(=O)Nc1ccc(C(=O)OC(C)(C)C)cc1: > 1000 nM

IC50 on Long-chain fatty acid transport protein 1 (Homo sapiens) for CCn1c(CNc2ccccc2)nnc1SCC(=O)Nc1ccc(C(=O)NC)cc1 is > 1000 nM

* * *

# assayed_system: Long-chain fatty acid transport protein 1 (Mus musculus, UniProt Q60714)
# protocol_notes: Inhibition of mouse recombinant FATP1 acyl-coA synthetase activity using [14C]oleic acid as substrate
I'd be grateful if you could share measured IC50 for these entries.

Example cases with answers are listed next.
CCn1c(CNc2ccccc2)nnc1SCC(=O)Nc1ccc(C(=O)O)cc1: > 10 µM
CCn1c(CNc2ccccc2)nnc1SCC(=O)Nc1ccccc1: > 10 µM
CCn1nnc(-c2ccc(NC(=O)CSc3nnc(CNc4ccccc4)n3CC)cc2)n1: > 10 µM

Please examine the following record next.
Form field IC50 for item CCNC(=O)c1ccc(NC(=O)CSc2nnc(CNc3ccccc3)n2CC)cc1 on Long-chain fatty acid transport protein 1 (Mus musculus, UniProt Q60714): > 10 µM
